The following molecules are listed with their measured pEC50 values.
Tested on: HIV in lymphocyte derived CEM cells
Experiment: Cellular Infection Assay, antiviral efficacy in HIV infected CEM cells (XTT cytopathic procedure)
Assay type: cell-based
Settings: Human immunodeficiency virus 1, CCRF-CEM; CEM cells; reduces HIV cytopathic effects 50% relative to untreated control; read-out: Antiviral Efficacy EC50
Procedure: The compounds of the present invention were evaluated for their in vitro inhibition of HIV-1 protease and for their antiviral efficacy in HIV infected lymphocytes. Compounds were tested in lymphocyte derived CEM cells using the XTT cytopathic procedures and were performed at Southern Research Institute (Buckheit, et. al. Antiviral Res. 1993, 21, 247; see also Weislow, et al. J Nat. Cancer Inst., 1989, 81, 577). Compound concentrations were 0.32, 1, 3.2, 10, 32 and 100 uM. […]
When answering, recall that pEC50 equals minus log10 of the concentration in mol/L, and write that number alone.

CCNS(=O)(=O)Oc1cc(C(C)(C)C)c(SC2=C(O)CC(CCc3ccc(O)c(OC)c3)(c3ccc(OCCO)cc3)OC2=O)cc1C (stereo not shown) [Example 48] ... 5.16
CCNS(=O)(=O)Oc1cc(C(C)(C)C)c(SC2=C(O)CC(CCc3ccc(O)cc3)(CCc3ccc(O)cc3)OC2=O)cc1C [Example 28] ... 5.26
Cc1cc(SC2=C(O)CC(CCc3ccccc3)(c3ccc(OCCO)cc3)OC2=O)c(C(C)(C)C)cc1OS(=O)(=O)N1CCN(C)CC1 (stereo not shown) [Example 46] ... 5.27
Cc1cc(SC2=C(O)CC(CCc3ccc(O)cc3)(C3CCCCC3)OC2=O)c(C(C)(C)C)cc1O (stereo not shown) [Example 10] ... 5.51
Cc1cc(SC2=C(O)CC(CCc3ccc(O)cc3)(C3CCC3)OC2=O)c(C(C)(C)C)cc1CO (stereo not shown) [Example 98] ... 6.10

The molecule listed as CCNS(=O)(=O)Oc1cc(C(C)(C)C)c(SC2=C(O)CC(CCc3ccc(O)cc3)(C3CCN(C(C)=O)CC3)OC2=O)cc1C (stereo not shown) [Example 89] has a reported pEC50 of 4.49
